# TARGET_OR_SYSTEM: BRM (Homo sapiens, UniProt P51531)
# Construct: Western Blot Screen of BRM Degradation in SW1573 Cells; endogenous in cells; host or cells: SW1573 cells
# Sequence (P51531 whole entry): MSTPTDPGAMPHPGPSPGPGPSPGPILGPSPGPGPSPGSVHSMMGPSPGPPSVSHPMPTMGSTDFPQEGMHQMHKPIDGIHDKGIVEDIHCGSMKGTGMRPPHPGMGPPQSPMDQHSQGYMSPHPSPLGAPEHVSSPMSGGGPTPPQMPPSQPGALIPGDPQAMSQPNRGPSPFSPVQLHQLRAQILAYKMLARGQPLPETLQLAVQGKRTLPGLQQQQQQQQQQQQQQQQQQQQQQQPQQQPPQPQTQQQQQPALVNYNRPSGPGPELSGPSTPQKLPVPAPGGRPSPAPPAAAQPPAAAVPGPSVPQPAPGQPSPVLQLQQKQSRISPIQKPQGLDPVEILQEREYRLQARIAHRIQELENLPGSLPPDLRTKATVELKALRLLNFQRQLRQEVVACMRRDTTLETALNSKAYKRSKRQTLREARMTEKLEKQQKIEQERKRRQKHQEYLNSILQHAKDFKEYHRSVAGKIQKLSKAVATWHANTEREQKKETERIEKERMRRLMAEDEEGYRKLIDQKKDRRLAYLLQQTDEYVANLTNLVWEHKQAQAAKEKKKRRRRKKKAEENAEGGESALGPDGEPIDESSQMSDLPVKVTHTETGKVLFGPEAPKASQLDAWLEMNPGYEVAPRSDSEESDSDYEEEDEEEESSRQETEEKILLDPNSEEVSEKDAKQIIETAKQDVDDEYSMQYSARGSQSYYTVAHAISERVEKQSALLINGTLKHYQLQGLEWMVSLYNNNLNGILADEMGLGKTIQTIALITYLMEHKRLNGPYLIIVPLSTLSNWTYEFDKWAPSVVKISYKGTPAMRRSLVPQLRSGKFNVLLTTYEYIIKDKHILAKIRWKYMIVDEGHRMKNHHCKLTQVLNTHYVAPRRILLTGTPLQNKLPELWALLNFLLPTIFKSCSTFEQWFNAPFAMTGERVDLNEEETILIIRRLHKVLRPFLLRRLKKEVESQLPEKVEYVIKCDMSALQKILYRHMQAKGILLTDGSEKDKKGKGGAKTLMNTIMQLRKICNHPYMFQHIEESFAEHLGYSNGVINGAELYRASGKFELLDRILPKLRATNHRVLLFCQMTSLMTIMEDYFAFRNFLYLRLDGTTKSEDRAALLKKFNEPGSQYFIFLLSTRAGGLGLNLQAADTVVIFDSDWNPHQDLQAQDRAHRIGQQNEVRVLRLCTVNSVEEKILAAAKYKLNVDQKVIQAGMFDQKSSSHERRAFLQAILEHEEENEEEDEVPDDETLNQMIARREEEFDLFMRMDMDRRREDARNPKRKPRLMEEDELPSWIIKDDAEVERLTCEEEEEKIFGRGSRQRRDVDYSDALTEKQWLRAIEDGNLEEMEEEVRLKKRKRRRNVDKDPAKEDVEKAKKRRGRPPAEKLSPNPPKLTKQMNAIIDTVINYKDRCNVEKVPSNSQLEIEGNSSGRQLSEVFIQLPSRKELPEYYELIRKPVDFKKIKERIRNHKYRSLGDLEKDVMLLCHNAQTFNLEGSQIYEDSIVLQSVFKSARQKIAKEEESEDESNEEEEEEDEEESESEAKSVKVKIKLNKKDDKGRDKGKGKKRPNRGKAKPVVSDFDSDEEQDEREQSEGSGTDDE
# PROTOCOL: BRM degradation (Dmax and DC50) in SW1573 cells, Western blot screen / In-Cell Western screen
# Format: cell-based
# CONDITION: overnight (18-20 hours) treatment, read-out: Dmax (%)** (% degraded)
Here the recorded Dmax is given for each entry.

Provide only the value of recorded Dmax for Cc1ncsc1-c1ccc([C@H](C)NC(=O)[C@@H]2C[C@@H](O)CN2C(=O)[C@@H](c2cc(N3CCC(CN4CCCC5(CC(N6CCO[C@H](CN7C8CCC7CN(c7cc(-c9ccccc9O)nnc7N)C8)C6)C5)C4)CC3)no2)C(C)C)cc1 (some centres unmarked)
> 75%

Specify measured Dmax for `Cc1ncsc1-c1ccc([C@H](C)NC(=O)[C@@H]2C[C@@H](O)CN2C(=O)[C@@H](c2cc(N3CCC(CN4CCC(O[C@H]5C[C@H](N6CCC(Cc7cnn(-c8cc(-c9ccccc9O)nnc8N)c7)CC6)C5)CC4)CC3)no2)C(C)C)cc1` .
> 75%

====

# TARGET_OR_SYSTEM: BRM (Homo sapiens)
# Construct: Western Blot Screen of BRM Degradation in SW1573 Cells; endogenous in cells; host or cells: SW1573 cells
# PROTOCOL: BRM degradation (Dmax and DC50) in SW1573 cells, Western blot screen / In-Cell Western screen
# Assay type: cell-based
# CONDITION: overnight (18-20 hours) treatment
PROPERTY_LABEL: DC50

[[record]]
molecule = "Cc1ncsc1-c1ccc([C@H](C)NC(=O)[C@@H]2C[C@@H](O)CN2C(=O)[C@@H](c2cc(N3CCC(CN4CC[C@H](OC(=O)N5CCN(c6cc(-c7ccccc7O)nnc6N)CC5)[C@@H](F)C4)CC3)no2)C(C)C)cc1 [Compound 104]"
readout_value = "< 2.5 nM"

[[record]]
molecule = "CC(C)[C@@H](C(=O)N1C[C@H](O)C[C@H]1C(=O)N[C@@H](C)c1ccc(C#N)cc1)c1cc(OCCN2CCN(CCOc3cc(N4C5CCC4CN(c4cc(-c6ccccc6O)nnc4N)C5)ccn3)CC2)no1 [Compound 66]"
readout_value = "2.5 to 10 nM"


Please give the documented DC50 of Cc1ncsc1-c1ccc([C@H](C)NC(=O)[C@@H]2C[C@@H](O)CN2C(=O)[C@H](c2cc(N3CCC(OC(=O)N4CCC(O[C@H]5C[C@H](Oc6cc(N7C8CCC7CN(c7cc(-c9ccccc9O)nnc7N)C8)ccn6)C5)CC4)CC3)no2)C(C)C)cc1 [Compound 116]
< 2.5 nM

Write down DC50 measured for item CC(C)[C@@H](C(=O)N1C[C@H](O)C[C@H]1C(=O)N[C@@H](C)c1ccc(C#N)cc1)c1cc(N2CCC(OCCN3CCC(Oc4cc(N5C6CCC5CN(c5cc(-c7ccccc7O)nnc5N)C6)ccn4)CC3)CC2)no1 [Compound 151]
2.5 to 10 nM

Given CC(C)[C@@H](C(=O)N1C[C@H](O)C[C@H]1C(=O)N[C@@H](C)c1ccc(C#N)cc1)c1cc(N2CCN(C(=O)N3CCC(O[C@H]4C[C@H](Oc5cc(N6C7CCC6CN(c6cc(-c8ccccc8O)nnc6N)C7)ccn5)C4)CC3)CC2)no1 [Compound 140] , respond with its DC50.
< 2.5 nM

Entry CC(C)[C@@H](C(=O)N1C[C@H](O)C[C@H]1C(=O)N[C@@H](C)c1ccc(-c2ccnn2C)cc1)c1cc(N2CCC(CN3CCC(O[C@H]4C[C@H](N5CCOC6(CCN(c7cc(-c8ccccc8O)nnc7N)CC6)C5)C4)CC3)CC2)no1 [Compound 28] needs its DC50 filled in; supply it.
< 2.5 nM

# return recorded DC50 for input Cc1ncsc1-c1ccc([C@H](C)NC(=O)[C@@H]2C[C@@H](O)CN2C(=O)[C@@H](c2cc(N3CCC(CN4CCC(O[C@H]5C[C@H](N6CC(F)(F)OC7(CCN(c8cc(-c9ccccc9O)nnc8N)CC7)C6)C5)CC4)CC3)no2)C(C)C)cc1 [Compound 55]
< 2.5 nM

Give the measured DC50 for Cc1ncsc1-c1ccc([C@H](C)NC(=O)[C@@H]2C[C@@H](O)CN2C(=O)[C@H](c2cc(OCCOC(=O)N3CCC(O[C@H]4C[C@H](Oc5cc(N6C7CCC6CN(c6cc(-c8ccccc8O)nnc6N)C7)ccn5)C4)CC3)no2)C(C)C)cc1 [Compound 134]
≥ 30 nM

====

# TARGET_OR_SYSTEM: BRM (Homo sapiens)
# Construct: Western Blot Screen of BRM Degradation in SW1573 Cells; endogenous in cells; host or cells: SW1573 cells
# PROTOCOL: BRM degradation (Dmax and DC50) in SW1573 cells, Western blot screen / In-Cell Western screen
# Format: cell-based
# CONDITION: overnight (18-20 hours) treatment, read-out: Dmax (%)** (% degraded)
PROPERTY_LABEL: Dmax

Examples from the recorded data:
[[record]]
molecule = "Cc1ncsc1-c1ccc([C@H](C)NC(=O)[C@@H]2C[C@@H](O)CN2C(=O)[C@@H](c2cc(N3CCC(CN4CCC(O[C@H]5C[C@H](N6CCC([C@@H](C)c7cnn(-c8cc(-c9ccccc9O)nnc8N)c7)CC6)C5)CC4)CC3)no2)C(C)C)cc1"
readout_value = "> 75%"

[[record]]
molecule = "Cc1ncsc1-c1ccc([C@H](C)NC(=O)[C@@H]2C[C@@H](O)CN2C(=O)[C@@H](c2cc(OCCN3CCC(O[C@H]4C[C@H](OC(=O)N5CCN(c6cc(-c7ccccc7O)nnc6N)CC5)C4)CC3)no2)C(C)C)cc1"
readout_value = "> 75%"

[[record]]
molecule = "CC(C)[C@@H](C(=O)N1C[C@H](O)C[C@H]1C(=O)N[C@@H](C)c1ccc(-c2ccnn2C)cc1)c1cc(N2CCC(CN3CCC(Oc4cc(N5CCN(c6cc(-c7ccccc7O)nnc6N)CC5)ccn4)CC3)CC2)no1"
readout_value = "> 75%"

[[record]]
molecule = "Cc1ncsc1-c1ccc([C@H](C)NC(=O)[C@@H]2C[C@@H](O)CN2C(=O)[C@@H](c2cc(N3CCC(CN4CCC5(CC4)CC(N4CCO[C@@H](CN6C7CCC6CN(c6cc(-c8ccccc8O)nnc6N)C7)C4)C5)CC3)no2)C(C)C)cc1"
readout_value = "> 75%"

[[record]]
molecule = "Cc1ncsc1-c1ccc([C@H](C)NC(=O)[C@@H]2C[C@@H](O)CN2C(=O)[C@@H](c2cc(N3CCC(CN4CC[C@H](Oc5cc(N6C7CCC6CN(c6cc(-c8ccccc8O)nnc6N)C7)ccn5)[C@@H](F)C4)CC3)no2)C(C)C)cc1"
readout_value = "> 75%"


Give reported Dmax value for `Cc1ncsc1-c1ccc([C@H](C)NC(=O)[C@@H]2C[C@@H](O)CN2C(=O)[C@@H](c2cc(N3CCC(CN4CCC(O[C@H]5C[C@H](CN6CCC(N7C8CCC7CN(c7cc(-c9ccccc9O)nnc7N)C8)CC6)C5)CC4)CC3)no2)C(C)C)cc1`
> 75%

Given `CC(C)[C@H](C(=O)N1C[C@H](O)C[C@H]1C(=O)N[C@@H](C)c1ccc(-c2scnc2C#CCOCCOCCOc2cc(N3C4CCC3CN(c3cc(-c5ccccc5O)nnc3N)C4)ccn2)cc1)N1Cc2ccccc2C1=O` , respond with its Dmax.
> 75%

Query Dmax for CC(C)C(C(=O)N1C[C@H](O)C[C@H]1C(=O)N[C@@H](C)c1ccc(-c2ccnn2C)cc1)c1cc(OCC#Cc2ncc(O[C@H]3C[C@H](Oc4cc(N5CCN(c6cc(-c7ccccc7O)nnc6N)CC5)ccn4)C3)cn2)no1 (some centres unmarked)
> 75%

====

Listing of recorded DC50 by entry.
# TARGET_OR_SYSTEM: BRM (Homo sapiens, UniProt P51531)
# Construct: Western Blot Screen of BRM Degradation in SW1573 Cells; endogenous in cells; host or cells: SW1573 cells
# PROTOCOL: BRM degradation (Dmax and DC50) in SW1573 cells, Western blot screen / In-Cell Western screen
# Format: cell-based
# CONDITION: overnight (18-20 hours) treatment

[[record]]
molecule = "Cc1ncsc1-c1ccc([C@H](C)NC(=O)[C@@H]2C[C@@H](O)CN2C(=O)[C@@H](c2cc(N3CCC(CN4CCC(O[C@H]5C[C@H](N6CCC([C@H](C)n7cc(-c8cc(-c9ccccc9O)nnc8N)cn7)CC6)C5)CC4)CC3)no2)C(C)C)cc1 [Compound 9]"
property_label = "DC50"
readout_value = "< 2.5 nM"


Please look at the following molecule next.
Give reported DC50 value for Cc1ncsc1-c1ccc([C@H](C)NC(=O)[C@@H]2C[C@@H](O)CN2C(=O)[C@H](c2cc(N3C4CCC3CC(CN3CCC(O[C@H]5C[C@H](Oc6cc(N7C8CCC7CN(c7cc(-c9ccccc9O)nnc7N)C8)ccn6)C5)CC3)C4)no2)C(C)C)cc1 (some centres unmarked) [Compound 18]
≥ 30 nM

These measurements were taken from patent US20250059198A1.
